Test system: normal human neonatal foreskin epidermal keratinocytes (NHEK-F)
Assay: Cell proliferation inhibition test
Type: cell-based
Conditions: Keratinocyte, 72 h, NHEK-F cells, three days incubation, ATPlite or CellTiterGlo, read-out: IC50 (concentration of the compound at which the cell count is reduced by 50%)
Form field: IC50 (one value per entry).

[
  {
    "sampleSmiles": "O=C(O)c1cc(C2CC2)cnc1Nc1ccc2c(ccn2Cc2cccc(F)c2F)c1",
    "IC50": "≤ 10 nM"
  },
  {
    "sampleSmiles": "CC(C)(C)c1cc2cc(Nc3ncc(C4CC4)cc3C(=O)O)ccc2[nH]1",
    "IC50": "100 to 1000 nM"
  },
  {
    "sampleSmiles": "O=C(O)c1cc(Cl)ccc1Nc1ccc2c(ccn2Cc2ccc3ccccc3n2)c1",
    "IC50": "10 to 100 nM"
  },
  {
    "sampleSmiles": "CSc1nccc(-n2ccc3cc(Nc4ccc(Cl)cc4C(=O)O)ccc32)n1",
    "IC50": "10 to 100 nM"
  }
]
